System: A498
EXPERIMENTAL_DETAILS: NCI tumour cell line growth inhibition, 48 h
Calls of active or inactive are those of the source. Cut-off read from the data, not from the text of the source: active = GI50 up to about 1.1 µM and inactive = higher.
OBSERVABLE: GI50

Take a look at these entries with their results.
{"COMPOUND": "CCOC(=O)COc1ccc(OCC(=O)OCC)c2c1C(=O)CCCC2=O", "GI50": "0.281 µM (active)"}
{"COMPOUND": "CC1CC(=O)C(CC(=O)O)[C@H]1C(C(=O)C(=O)Nc1cc(Cl)ccc1Cl)[N+](=O)[O-] (stereo partly specified)", "GI50": "> 100 µM (inactive)"}
{"COMPOUND": "COc1cc(/C=C/C(=O)N[C@@H]2C(=O)N3[C@@H]2SC(C)(C)[C@@H]3C(=O)O)cc(OC)c1OC", "GI50": "> 100 µM (inactive)"}
{"COMPOUND": "COC(=O)c1ccccc1C1CN=NC12Cc1ccc3ccccc3c1C2=O (stereo unspecified)", "GI50": "> 100 µM (inactive)"}
{"COMPOUND": "CC(C)Cc1cc2c(cc1O)CCC1C2CC[C@@]2(C)C1CC[C@@H]2O (stereo partly specified)", "GI50": "18.3 µM (inactive)"}

We now examine a further compound.
Using known records, supply GI50 for `CN(Cc1ccccc1)C1(N(C)Cc2ccccc2)CC1`
> 100 µM (inactive)
